Organism: Cavia porcellus
experimental details: Schultz-Dale (SD) reaction in tracheal strip isolated from passively sensitized guinea pigs
Type: functional
pIC50: −log10 of the molar value.
measured metric: pIC50

Give me measured pIC50, please, for this compound: CC(C)Cn1cnc2c3cccnc3n(-c3ccccc3)c(=O)c21 5.17

Give me measured pIC50, please, for this compound: CCCCn1c(O)c2ncnc-2c2cccnc21 < 4.52

Give me measured pIC50, please, for this compound: CCCCCCn1cnc2c3cccnc3n(-c3ccccc3)c(=O)c21 < 4.52

Give me measured pIC50, please, for this compound: CCCCn1cnc2c3cccnc3n(-c3ccccc3)c(=O)c21 < 4.52

Give me measured pIC50, please, for this compound: CCCn1cnc2c3cccnc3n(-c3ccccc3)c(=O)c21 5.08

Give me measured pIC50, please, for this compound: O=c1c2c(ncn2CCCN2CCOCC2)c2cccnc2n1-c1ccccc1 < 4.52

Give me measured pIC50, please, for this compound: Cn1cnc2c3cccnc3n(-c3ccccc3)c(=O)c21 6.66

Give me measured pIC50, please, for this compound: Oc1c2nc(-c3ccccc3)nc-2c2cccnc2n1-c1ccccc1 < 4.52

Give me measured pIC50, please, for this compound: CCN(CC)CCCn1cnc2c3cccnc3n(-c3ccccc3)c(=O)c21 < 4.52

Give me measured pIC50, please, for this compound: COc1ccc(C2CNC(=O)C2)cc1OC1CCCC1 (configuration not stated) 6.47

Give me measured pIC50, please, for this compound: Oc1c2nnnc-2c2cccnc2n1-c1ccccc1 < 4.52

Give me measured pIC50, please, for this compound: COc1cccc(-n2c(O)c3ncnc-3c3cccnc32)c1 < 4.52

---

Species: Cavia porcellus
experimental details: Schultz-Dale (SD) reaction in tracheal strip isolated from passively sensitized guinea pigs
Assay type: functional
measured metric: IC50 (µM)
Number in µM, nothing else.

Give me measured IC50, please, for this compound: CC(C)n1cnc2c3cccnc3n(-c3ccccc3)c(=O)c21 4.98

Give me measured IC50, please, for this compound: Oc1c2ncnc-2c2cccnc2n1-c1ccccc1 2.18

Give me measured IC50, please, for this compound: CCCCn1c(=O)c2c(ncn2C)c2cccnc21 3.57

Give me measured IC50, please, for this compound: CCCCn1c(=O)c2ncn(C)c2c2cccnc21 13

Give me measured IC50, please, for this compound: CCn1cnc2c3cccnc3n(-c3ccccc3)c(=O)c21 0.47

---

Consider the following compounds; for each one, report its IC50.
tested target: Phosphodiesterase 4 (Canis familiaris)
experimental details: Inhibition of Canine Tracheal Smooth Muscle PDE 4
Number in nM, nothing else.

Give me measured IC50, please, for this compound: CCCn1cnc2c3cccnc3n(-c3ccccc3)c(=O)c21 520

Give me measured IC50, please, for this compound: CC(C)n1cnc2c3cccnc3n(-c3ccccc3)c(=O)c21 2500

Give me measured IC50, please, for this compound: CC(C)Cn1cnc2c3cccnc3n(-c3ccccc3)c(=O)c21 150

Give me measured IC50, please, for this compound: CCn1cnc2c3cccnc3n(-c3ccccc3)c(=O)c21 2000

Give me measured IC50, please, for this compound: CCCCn1c(=O)c2c(ncn2C)c2cccnc21 3600

Give me measured IC50, please, for this compound: Cn1cnc2c3cccnc3n(-c3ccccc3)c(=O)c21 6600
